Origin of the recorded values: patent US20260035478A1

Give fold over background mean fluorescence intensity (MFI) for every item shown.
molecular target: T1, human mesothelin (MSLN) on cells (human, UniProt Q13421 296-598); assay: flow cytometry, supernatant diluted 1:5, CHO cells expressing human MSLN
T1 construct: whole, on cells; One molecule is used for human MSLN on transfected CHO cells and on HeLa cells; the cell line is named under assay; also called huMSLN
T1 sequence (Q13421 other isoform, or with tags, fused parts or gaps limits assumed): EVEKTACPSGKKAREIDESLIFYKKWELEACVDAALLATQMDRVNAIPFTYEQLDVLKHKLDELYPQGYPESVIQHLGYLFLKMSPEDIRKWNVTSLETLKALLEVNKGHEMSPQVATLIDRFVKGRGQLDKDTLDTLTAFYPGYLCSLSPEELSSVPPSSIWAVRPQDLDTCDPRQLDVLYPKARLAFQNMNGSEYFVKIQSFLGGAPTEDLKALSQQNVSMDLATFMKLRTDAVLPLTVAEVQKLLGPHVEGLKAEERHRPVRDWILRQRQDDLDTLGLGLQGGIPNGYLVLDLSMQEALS
Dear colleague, please return just the value in fold over background, with no unit written.

q: Dear colleague, I am looking for the recorded fold over background mean fluorescence intensity (MFI) of the following binder: anti-MSLN single domain antibody clone 394905 (VHH, Human VH single domain; tested as antibody-containing supernatant) VHH: EVQLLESGGGLGQPGGSLRLSCAASGFTFSSYPMSWVRQAPGKGLEWVSSISSSGDSTYYADSVKGRFTISRDNSKNTLYLQMNSLRAEDTAVYYCAKPPSYYDFLSDPDYWGQGTLVTVSS
a: 227

q: Any idea what its fold over background mean fluorescence intensity (MFI) is? The binder is anti-MSLN single domain antibody clone 394908 (VHH, Human VH single domain) VHH: EVQLLESGGGLIQPGGSLRLSCAASGFSFSSYAMSWVRQAPGKGLEWVSNISGSGDSTYYADSVKGRFTISRDNSKNTLYLQMNSLRAEDTAVYYCAKPPSYYDFLSDPDYWGQGTLVTVSS
a: 508

q: Data request, read-out fold over background mean fluorescence intensity (MFI), for anti-MSLN single domain antibody clone 394907 (VHH, Human VH single domain; tested as antibody-containing supernatant) VHH: EVQLLESGGGLIQPGGSLRLSCAASGFTFSSYAMSWVRQAPGKGLEWVSSISSSGDSTYYADSVKGRFTISRDNSKNTLYLQMNSLRAEDTAVYYCAKPPSYYDFLSDPDYWGQGTLVTVSS
a: 429

q: Could you share which fold over background mean fluorescence intensity (MFI) value was measured for anti-MSLN single domain antibody clone 394955 (VHH, Human VH single domain; tested as antibody-containing supernatant) VHH: EVQLLESGGGLVQPGGSLRLSCAASGFTFSSYAMSWVRQAPGKGLEWVSSISSSGDSTYYADSVKGRFTISRDNSKNTLYLQMNSLRAEDTAVYYCAKPPSYYDFLSDPDYWGQGTLVTVSS ?
a: 294

q: Recorded fold over background mean fluorescence intensity (MFI) of anti-MSLN single domain antibody clone 394991 (VHH, Human VH single domain; tested as antibody-containing supernatant) VHH: EVQLLESGGGLVQPGGSLRLSCAASGFTFSSYAMNWVRQAPGKGLEWVSSISSSGGSTYYADSVKGRFTISRDNSKNTLYLQMNSLRAEDTAVYYCARPPSYYDFLSDPDYWGQGTLVTVSS , please.
a: 281

q: Reported fold over background mean fluorescence intensity (MFI) for anti-MSLN single domain antibody clone 394925 (VHH, Human VH single domain; tested as antibody-containing supernatant) VHH: EVQLLESGGGLIQPGGSLRLSCAASGFSFSSYAMSWVRQAPGKGLEWVSAISSSGDSTYYADSVKGRFTISRDNSKNTLYLQMNSLRAEDTAVYYCAKPPSYYDFLSDPDYWGQGTLVTVSS : what is it?
a: 277

q: Data request, read-out fold over background mean fluorescence intensity (MFI), for anti-MSLN single domain antibody clone 394921 (VHH, Human VH single domain; tested as antibody-containing supernatant) VHH: EVQLLESGGGLVQPGGSLRLSCAASGFTFSSYAMSWVRQAPGKGLEWVSNISGSGDSTYYADSVKGRFTISRDNSKNTLYLQMNSLRAEDTAVYYCAKPPSYYDFLSDPDYWGQGTLVTVSS
a: 381

q: Query (binder): anti-MSLN single domain antibody clone 394930 (VHH, Human VH single domain; tested as antibody-containing supernatant) VHH: EVQLLESGGGLIQPGGSLRLSCAASGFSFSSYAMSWVRQAPGKGLEWVSSISSSGDSTYYADSVKGRFTISRDNSKNTLYLQMNSLRAEDTAVYYCARPPSYYDFLSDPDYWGQGTLVTVSS ; field requested: fold over background mean fluorescence intensity (MFI)
a: 540

q: State the recorded fold over background mean fluorescence intensity (MFI) for this entry: anti-MSLN single domain antibody clone 394971 (VHH, Human VH single domain; tested as antibody-containing supernatant) VHH: EVQLLESGGGLIQPGGSLRLSCAASGFSFSSYAMSWVRQAPGKGLEWVSYISGSGDSTYYADSVKGRFTISRDNSKNTLYLQMNSLRAEDTAVYYCAKPPSYYDFLSDPDYWGQGTLVTVSS
a: 373

q: Tell me the measured fold over background mean fluorescence intensity (MFI) of anti-MSLN single domain antibody clone 392774 (VHH, Human VH single domain) VHH: EVQLLESGGGLVQPGGSLRLSCAASGFTFSSYAMTWVRQAPGKGLEWVSAITGSGDSTYYADSVKGRFTISRDNSKNTLFLQMSSLRGEDTAVYYCAKPPSYYDFLSDPDYWGQGTLVTVSS , please.
a: 246
